The reported numbers originate from ChEMBL document CHEMBL1949602.

- Test system: Staphylococcus epidermidis
- assay_text: Antibacterial activity against Staphylococcus epidermidis ATCC 35984 assessed as inhibition of biofilm formation after 24 hrs by crystal violet staining
- Assay type: functional, organism-based
- measurement_context: ATCC 35984, 24 h
experimental_readout: pEC50
pEC50 here: minus log base 10 of the concentration, concentration in moles per litre.

Value of measured pEC50 for the entry C[n+]1cc2c3c(ccc2c2ccc4cc5c(cc4c21)OCO5)OCO3 : 5.36

For COc1ccc2c(c[n+](C)c3c4cc5c(cc4ccc23)OCO5)c1OC [CHELERYTHRINE CHLORIDE] the molecule record lists pEC50 as 5.07

Field pEC50 (entry Oc1cc(O)c2c(c1)O[C@@]1(c3ccc(O)c(O)c3)Oc3cc(O)c4c(c3[C@@H]2[C@H]1O)O[C@H](c1ccc(O)c(O)c1)[C@H](O)C4 ) reads 5.12

Given item Oc1ccc(-c2cc3ccccc3o2)c(O)c1 , the value recorded as its pEC50 is 4.63
